Data provenance: the OligoGym collection

Conditions: siRNA; note: test system not given here
HELM strings list units from the 5' end as sugar, base in round brackets, then linkage (d deoxyribose, r ribose, m 2'-O-methyl, p phosphodiester). Strings are as the collection lists them, not checked against the first reports. ss, as = sense and antisense strand; [fl2r] = 2'-fluoro
assay.metric: target mRNA knockdown (%)
One number for each entry, in %.

Here is how some substances turned out for target mRNA knockdown.
## Task Dear colleague, I am looking for the recorded target mRNA knockdown of the following substance: "RNA1{r(G)p.r(C)p.r(A)p.r(G)p.r(C)p.r(A)p.r(C)p.r(G)p.r(A)p.r(C)p.r(U)p.r(U)p.r(C)p.r(U)p.r(U)p.r(C)p.r(A)p.r(A)p.r(G)p.r(U)p.r(U)}|RNA2{r(C)p.[fl2r](U)p.r(U)p.r(G)p.r(A)p.r(A)p.r(G)p.r(A)p.r(A)p.r(G)p.r(U)p.r(C)p.r(G)p.r(U)p.r(G)p.r(C)p.r(U)p.r(G)p.r(C)p.r(U)p.r(U)}$$$RNA1{StrandType:ss}|RNA2{StrandType:as}$"
## Result 73.8

## Task Consider the substance shown here: "RNA1{m(A)p.r(A)p.m(C)p.r(A)p.m(G)p.r(U)p.m(C)p.r(C)p.m(U)p.r(U)p.r(A)p.m(G)p.r(C)p.m(U)p.r(A)p.r(C)p.m(G)p.r(C)p.r(U)p.r(T)p.r(T)}|RNA2{r(A)p.r(G)p.r(C)p.r(G)p.r(U)p.r(A)p.r(G)p.r(C)p.r(U)p.r(A)p.r(A)p.r(G)p.r(G)p.r(A)p.r(C)p.r(U)p.r(G)p.r(U)p.r(U)p.r(T)p.r(T)}$$$RNA1{StrandType:ss}|RNA2{StrandType:as}$" What is its recorded target mRNA knockdown?
## Result 35

Okay, here is my list. What is target mRNA knockdown for each of these?
1. RNA1{r(C)p.r(C)p.r(U)p.r(C)p.r(C)p.r(C)p.r(C)p.r(A)p.r(U)p.r(C)p.r(C)p.r(C)p.r(C)p.r(U)p.r(U)p.r(U)p.r(U)p.r(A)p.r(A)p.r(T)p.r(T)}|RNA2{r(U)p.r(U)p.m(A)p.r(A)p.r(A)p.r(A)p.r(G)p.r(G)p.r(G)p.r(G)p.r(A)p.r(U)p.r(G)p.r(G)p.r(G)p.r(G)p.r(A)p.r(G)p.r(G)p.r(T)p.r(T)}$$$RNA1{StrandType:ss}|RNA2{StrandType:as}$
2. RNA1{r(A)p.r(A)p.r(A)p.r(G)p.r(G)p.r(G)p.r(G)p.r(A)p.r(G)p.r(U)p.m(U)p.r(G)p.r(C)p.m(U)p.r(G)p.r(G)p.r(A)p.r(A)p.r(G)p.r(T)p.r(T)}|RNA2{r(C)p.r(U)p.r(U)p.r(C)p.m(C)p.r(A)p.r(G)p.r(C)p.r(A)p.r(A)p.r(C)p.r(U)p.r(C)p.r(C)p.r(C)p.r(C)p.r(U)p.r(U)p.r(U)p.r(T)p.r(T)}$$$RNA1{StrandType:ss}|RNA2{StrandType:as}$

## Result
80
76

## Task Look up target mRNA knockdown for this substance: "RNA1{r(C)p.r(C)p.r(C)p.r(C)p.m(A)p.m(G)p.m(G)p.m(U)p.m(A)p.m(A)p.m(C)p.r(G)p.r(A)p.r(U)p.r(U)p.r(U)p.r(U)p.r(C)p.r(U)p.r(T)p.r(T)}|RNA2{r(A)p.r(G)p.r(A)p.r(A)p.r(A)p.r(A)p.r(U)p.r(C)p.r(G)p.r(U)p.r(U)p.r(A)p.r(C)p.r(C)p.r(U)p.r(G)p.r(G)p.r(G)p.r(G)p.r(T)p.r(T)}$$$RNA1{StrandType:ss}|RNA2{StrandType:as}$"
## Result 79
